assay_target: PmSiaT (Proteus mirabilis)
Construct: made in house
procedure_summary: nanoDSF thermal shift assay, PmSiaT
Type: binding
condition_context: PmSiaT Tm, average of experiment 2
measured_attribute: Average 2 (°C)

molecule	number
CC(=O)NC1C(O)CC(O)(C(=O)O)OC1C(O)C(O)CN=[N+]=[N-] (stereo not drawn) [Compound 8g]	46.1
CC(=O)NC1C(OCc2ccc(Br)cc2)CC(O)(C(=O)O)OC1C(O)C(O)CO (stereo not drawn) [Compound 3c]	55.9
O=C(NC1C(O)CC(O)(C(=O)O)OC1C(O)C(O)CO)c1ccccc1 (stereo not drawn) [Compound 6d]	45.9
CC(=O)NC1C(OCc2cc(F)cc(F)c2)CC(O)(C(=O)O)OC1C(O)C(O)CO (stereo not drawn) [Compound 3e]	55.2
CC(=O)NC1C(OCc2cc(Br)cc(Br)c2)CC(O)(C(=O)O)OC1C(O)C(O)CO (stereo not drawn) [Compound 3f]	62.8
O=C(CF)NC1C(O)CC(O)(C(=O)O)OC1C(O)C(O)CO (stereo not drawn) [Compound 6f]	47.6
CC(C)(C)C(=O)NC1C(O)CC(O)(C(=O)O)OC1C(O)C(O)CO (stereo not drawn) [Compound 6c]	46.7
O=C(Cc1ccccc1)NC1C(O)CC(O)(C(=O)O)OC1C(O)C(O)CO (stereo not drawn) [Compound 6e]	46.2
CSCC(O)C(O)C1OC(O)(C(=O)O)CC(O)C1NC(C)=O (stereo not drawn) [Compound 8a]	46.2

----------
assay_target: PmSiaT (Proteus mirabilis, UniProt B4EZY7)
Construct: made in house
Sequence (B4EZY7 whole entry): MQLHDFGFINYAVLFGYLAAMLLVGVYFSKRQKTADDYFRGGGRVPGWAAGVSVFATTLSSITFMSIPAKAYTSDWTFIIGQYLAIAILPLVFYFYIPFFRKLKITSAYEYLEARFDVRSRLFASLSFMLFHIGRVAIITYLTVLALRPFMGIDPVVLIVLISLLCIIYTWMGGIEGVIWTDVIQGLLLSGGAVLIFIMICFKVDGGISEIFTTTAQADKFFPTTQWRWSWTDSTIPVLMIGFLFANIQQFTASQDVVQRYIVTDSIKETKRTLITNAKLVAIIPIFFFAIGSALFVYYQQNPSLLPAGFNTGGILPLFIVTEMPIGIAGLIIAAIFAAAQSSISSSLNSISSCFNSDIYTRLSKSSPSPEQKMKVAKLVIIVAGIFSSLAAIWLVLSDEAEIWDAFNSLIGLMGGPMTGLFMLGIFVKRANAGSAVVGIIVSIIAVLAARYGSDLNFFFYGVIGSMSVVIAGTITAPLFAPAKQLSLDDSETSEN
procedure_summary: nanoDSF thermal shift assay, PmSiaT
Assay type: binding
condition_context: PmSiaT Tm, experiment 2, second capillary, 1.25 mM

compound	unit_name	Replicate 2
CC(C)C(=O)NC1C(O)CC(O)(C(=O)O)OC1C(O)C(O)CO (centres unmarked) [Compound 6b]	°C	47.0
CC(=O)NC1C(OCc2cc(Br)cc(Br)c2)CC(O)(C(=O)O)OC1C(O)C(O)CO (centres unmarked) [Compound 3f]	°C	63.0
CC(=O)N[C@H]1[C@H]([C@H](O)[C@H](O)CO)OC(C(=O)O)=C[C@@H]1O [Compound 9, reference compound]	°C	46.1
O=C(NC1C(O)CC(O)(C(=O)O)OC1C(O)C(O)CO)c1ccccc1 (centres unmarked) [Compound 6d]	°C	45.9
O=C(CCl)NC1C(O)CC(O)(C(=O)O)OC1C(O)C(O)CO (centres unmarked) [Compound 6g]	°C	49.9
O=C(CO)N[C@H]1[C@H]([C@H](O)[C@H](O)CO)OC(O)(C(=O)O)C[C@@H]1O (some centres unmarked) [Neu5Gc, 5-N-glycolyl neuraminic acid, reference compound]	°C	48.0
CSCC(O)C(O)C1OC(O)(C(=O)O)CC(O)C1NC(C)=O (centres unmarked) [Compound 8a]	°C	46.0
CC(=O)NC1C(O)CC(O)(C(=O)O)OC1C(O)C(O)CCl (centres unmarked) [Compound 8c]	°C	47.9

----------
assay_target: SaSiaT (Staphylococcus aureus)
Sequence (A0A0H2XJ46 entry or part of it): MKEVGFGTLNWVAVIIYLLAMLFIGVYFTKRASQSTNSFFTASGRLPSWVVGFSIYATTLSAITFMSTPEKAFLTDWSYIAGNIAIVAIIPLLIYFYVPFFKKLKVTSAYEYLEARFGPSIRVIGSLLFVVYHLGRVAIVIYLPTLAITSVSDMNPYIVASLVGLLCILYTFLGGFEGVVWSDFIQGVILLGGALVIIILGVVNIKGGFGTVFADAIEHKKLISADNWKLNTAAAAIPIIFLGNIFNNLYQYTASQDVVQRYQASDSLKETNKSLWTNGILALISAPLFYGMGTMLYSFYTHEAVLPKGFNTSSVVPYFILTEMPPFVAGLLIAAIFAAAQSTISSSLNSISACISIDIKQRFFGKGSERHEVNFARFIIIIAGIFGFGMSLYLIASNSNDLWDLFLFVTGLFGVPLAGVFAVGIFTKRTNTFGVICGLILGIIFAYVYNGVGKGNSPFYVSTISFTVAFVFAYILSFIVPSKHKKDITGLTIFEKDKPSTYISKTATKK
procedure_summary: nanoDSF thermal shift assay, SaSiaT
Assay type: binding
condition_context: SaSiaT Tm, experiment 1, second capillary, 1.25 mM

compound	Replicate 1, °C
O=C(NC1C(O)CC(O)(C(=O)O)OC1C(O)C(O)CO)c1ccccc1 (centres unmarked)	46.1
CC(=O)NC1C(OCc2ccc(C#N)cc2)CC(O)(C(=O)O)OC1C(O)C(O)CO (centres unmarked)	54.3
O=C(Cc1ccccc1)NC1C(O)CC(O)(C(=O)O)OC1C(O)C(O)CO (centres unmarked)	51.3
CC(C)(C)C(=O)NC1C(O)CC(O)(C(=O)O)OC1C(O)C(O)CO (centres unmarked)	43.4
CC(=O)NC1C(O)CC(O)(C(=O)O)OC1C(O)C(O)CN=[N+]=[N-] (centres unmarked)	42.7
